# assay.method.text: P-glycoprotein substrates identified in KB-8-5-11 adenocarcinoma cell line, qHTS therapeutic library screen (AID 1346987); further: nearly all actives have a fitted effect of over 65% in size
# measurement.context: KB-8-5-11 (P-gp overexpressing) viability, CellTiter-Glo, 72 h; series mostly up to 44.5 µM
Records with an inconclusive call do not appear. The source made the active and inactive calls. The call rests on the fitted dose curve; in most records, active means well fitted inhibition curve with a large enough effect; inconclusive means small, poorly fitted or top-dose-only effect; inactive means flat fitted curve, though single readings scatter.
Your answer must be one of the following: yes (active), no (inactive)

Worked examples, 3 molecules total:
C=C1C[C@H]2[C@@H]3C=C(C)C4=CC(=O)CC[C@]4(C)[C@H]3CC[C@]2(C)[C@@]1(OC(C)=O)C(C)=O = yes
CN=C(NC#N)NCCSCc1csc(N=C(N)N)n1 = no
CN(C)CCCOc1nn(Cc2ccccc2)c2ccccc12 = no

Data request: Short answer needed: outcome of this test for `CN1CCC(=C2c3ccccc3Sc3ccccc32)CC1` ?
Data returned: yes

Data request: Record lookup: outcome of this test for `CC(C)NC[C@@H](O)COc1cccc2ccccc12` ?
Data returned: no

###

# Tested on: DIV17
# assay.method.text: qHTS profiling for inhibitors of Plasmodium falciparum proliferation (AID 504749); further: nearly all actives have a fitted effect of over 60% in size
# measurement.context: P. falciparum in erythrocytes, SYBR Green DNA, 72 h; series mostly up to 28.7 µM
Results filed as inconclusive are left out. Calls of active or inactive are those of the source. Calls come from the whole dose curve; as a rule, active = well fitted inhibition curve with a large enough effect; inconclusive = small, poorly fitted or top-dose-only effect; inactive = flat fitted curve, though single readings scatter.
Give your call using only these classes: active, inactive

Solved cases (5 shown):
c1ccc(-c2ccc(C(c3ccccc3)n3ccnc3)cc2)cc1 (stereo not drawn) = active
COc1cc(NS(C)(=O)=O)ccc1Nc1c2ccccc2nc2ccccc12 = active
C[C@H]1[C@H](NC(=O)/C(=N/OC(C)(C)C(=O)O)c2csc(N)n2)C(=O)N1S(=O)(=O)O (stereo in doubt) = inactive
CCN1CCN(c2cc3c(cc2F)c(=O)c(C(=O)O)cn3C2CC2)CC1 = inactive
Cc1c(N(C)CS(=O)(=O)O)c(=O)n(-c2ccccc2)n1C = inactive

Data request: Check the results log: what was the call for `Nc1ccc(/C=C/c2ccc(N)cc2S(=O)(=O)O)c(S(=O)(=O)O)c1` ?
Data returned: inactive

Data request: Recorded call for `O=C1CCC(c2ccc(-n3ccnc3)cc2)=NN1` ?
Data returned: inactive

Data request: What did this assay record as the result for `Cc1c(C)n(Cc2ccccc2)c2ccc(C(=O)OCCN(C)C)cc12` ?
Data returned: inactive

Data request: GET /call?item= `CCC(=O)c1c(O)cc(O)cc1O` returns the recorded outcome of this test.
Data returned: inactive

Data request: In this assay, the call recorded for `CC(=O)OCC(=O)NCCCOc1cccc(CN2CCCCC2)c1` was what?
Data returned: inactive

###

# assay.method.text: qHTS of pediatric cancer cell lines to identify multiple opportunities for drug repurposing: Primary screen for RD cells (AID 1347104); further: nearly all actives have a fitted effect of over 55% in size
# measurement.context: RD rhabdomyosarcoma viability, CellTiter-Glo luminescence, 48 h; series mostly up to 46 µM
Records with an inconclusive call do not appear. The source made the active and inactive calls. The call rests on the fitted dose curve; in most records, active means well fitted cell-killing curve with a large enough effect; inconclusive means small, poorly fitted or top-dose-only effect; inactive means flat fitted curve, though single readings scatter.
Hi! Could you answer with just one of these? True = active, False = inactive

CNC(=O)CN(CCN(CCN(CC(=O)[O-])CC(=O)NC)CC(=O)[O-])CC(=O)[O-].O.[Gd+3] = False

Data request: Kindly provide the recorded test outcome for the following compound: `CC(=O)OCC(=O)[C@@]1(O)[C@H](C)C[C@H]2[C@@H]3CCC4=CC(=O)C=C[C@]4(C)[C@@]3(F)[C@@H](O)C[C@@]21C`
Data returned: False

Data request: Which outcome was assigned to `O=c1ccc2ccccc2o1` in this test?
Data returned: False
